Source: ChEMBL document CHEMBL1921760

# experimentalTarget: Cyclin-dependent kinase 2/cyclin E1 (Homo sapiens)
# measurementDescription: Inhibition of CDK2/cyclin E
pIC50: −log10 of the molar value.
property: pIC50

P: CC[C@@H](Nc1nc(NCc2ccccn2)c2ncn(C(C)C)c2n1)C(C)O (mixture of isomers)
Q: CC[C@H](Nc1nc(NCc2ccccn2)c2ncn(C(C)C)c2n1)C(C)O (mixture of isomers)
Endpoint returns whichever of P and Q has the numerically higher pIC50. Indicate which entry you chose by stating its label.
Q

P: CC[C@@H](Nc1nc(NCc2cccnc2)c2ncn(C(C)C)c2n1)C(O)C(C)(C)C (mixture of isomers)
Q: CCC(O)[C@H](CC)Nc1nc(NCc2cccnc2)c2ncn(C(C)C)c2n1 (mixture of isomers)
R: CCC(O)[C@@H](CC)Nc1nc(NCc2cccnc2)c2ncn(C(C)C)c2n1 (mixture of isomers)
S: CC[C@H](Nc1nc(NCc2cccnc2)c2ncn(C(C)C)c2n1)C(O)C(C)(C)C (mixture of isomers)
Put the items in sequence by pIC50, from largest down. Write the labels, ordered according to the request.
Q, R, S, P

1: CC[C@@H](Nc1nc(NCc2cccnc2)c2ncn(C(C)C)c2n1)C(O)C(C)C (mixture of isomers)
2: CC[C@H](Nc1nc(NCc2cccnc2)c2ncn(C(C)C)c2n1)C(C)(C)O
3: CC[C@@H](Nc1nc(NCc2cccnc2)c2ncn(C(C)C)c2n1)C(C)(C)O
4: CC[C@H](Nc1nc(NCc2cccnc2)c2ncn(C(C)C)c2n1)C(O)C(C)C (mixture of isomers)
Put the items in sequence by pIC50, from largest down. Write the labels, ordered according to the request.
2, 3, 1, 4
(2: 7.15, 3: 6.70, 1: 6.16, 4: 5.96)
